Assay: P. aeruginosa biofilm formation inhibitors, primary screen, PAO1 strain, BacTiter-Glo luminescence, LB-PBS (AID 1144)
Conditions: 12 h, higher = more signal
Recorded Metric: z-score
Output spec: single numeric token, no unit.

COc1ccc(O[C@H]2C=C[C@@H](c3ccccc3)O[C@@H]2CO)cc1 :: 0.584
CON=C[C@@H](OC)[C@H](C)C=CCC(=O)OC :: 0.157
CCN1C(=O)[C@H]2[C@H]3[C@H](O)[C@H](O)CC(=NNC(=O)OCc4ccccc4)[C@H]3CC[C@H]2C1=O :: 0.877
CC(=O)OC[C@H]1O[C@@H](ON=C(C)CCC(=O)OC[C@H]2O[C@H](C#Cc3ccccc3)C=C[C@@H]2Oc2ccc(C)cc2)[C@H](OC(C)=O)[C@@H](OC(C)=O)[C@@H]1OC(C)=O :: -0.238

Next up:
Lookup: // query z-score value for entry "C=CC[C@@H]1C=C[C@H](ON=C(C)CCN2CCCCc3nc(C)c(C)cc32)[C@@H](CO)O1"
Found: 0.701

meta.source: PubChem BioAssay
